src = patent US9938257B2

CLint scaled at 5 μM values, listed per item
- test-protocol: Compound stability in human liver microsomes
- Type: in vitro ADME
- run-conditions: pH 7.4; human liver microsomes; in vivo CLint extrapolated
Give just the number in mL/min/kg; leave the unit off.

Take a look at these entries with their results.
- molecule: "Cn1cc(Nc2ncc(Cl)c(NC3CCC4(CC3)CCN(S(=O)(=O)C3CC3)CC4)n2)cn1"
  units: "mL/min/kg"
  result-value: 28.5
- molecule: "CC(=O)N1CC2CC(CC#N)(Nc3nc(Nc4cnn(C)c4)ncc3Cl)CC2C1 (stereo not drawn)"
  units: "mL/min/kg"
  result-value: 5.6
- molecule: "CC(=O)N1CC2CC(Nc3nc(Nc4cnn(-c5ccccn5)c4)ncc3Cl)CC2C1 (stereo not drawn)"
  units: "mL/min/kg"
  result-value: 55.3
- molecule: "CC(C)(O)Cn1cc(Nc2ncc(Cl)c(NC3CC4CN(C(=O)NC5CC5)CC4C3)n2)cn1 (stereo not drawn)"
  units: "mL/min/kg"
  result-value: 25.1

May I ask what CLint scaled at 5 μM has been recorded for Cn1cc(Nc2ncc(Cl)c(NC3CC4CN(S(=O)(=O)CC5CC5)CC4C3)n2)cn1 (stereo not drawn) ? 48.6

May I ask what CLint scaled at 5 μM has been recorded for CCNS(=O)(=O)N1CC2CC(Nc3nc(Nc4cnn(C)c4)ncc3Cl)CC2C1 (stereo not drawn) ? 51.2

May I ask what CLint scaled at 5 μM has been recorded for Cn1cc(Nc2ncc(Cl)c(NC3CC4CN(S(=O)(=O)C5CC5)CC4C3)n2)cn1 (stereo not drawn) ? 52.5

May I ask what CLint scaled at 5 μM has been recorded for Cn1cc(Nc2ncc(Cl)c(NC3CC4CN(C(=O)N5CCOCC5)CC4C3)n2)cn1 (stereo not drawn) ? 40.2

May I ask what CLint scaled at 5 μM has been recorded for Cn1cc(Nc2ncc(Cl)c(NC3CCC4(CC3)CCN(CC(C)(C)O)CC4)n2)cn1 ? 4.3

====

- test-protocol: Compound stability in rat liver microsomes
- Type: in vitro ADME
- run-conditions: pH 7.4; rat liver microsomes; in vivo CLint extrapolated
So basically: is CLint scaled at 5 μM under 60 mL/min/kg? Then YES. Not under? Then NO.

Past entries and their recorded results:
- molecule: "Cn1cc(Nc2ncc(Cl)c(NC3CC4CN(C(=O)Nc5ccccc5)CC4C3)n2)cn1 (centres unmarked) [Ex. 28]"
  group-label: "NO"
- molecule: "CC(=O)N1CC2CC(CC#N)(Nc3nc(Nc4cnn(C)c4)ncc3Cl)CC2C1 (centres unmarked) [Ex. 48]"
  group-label: "YES"
- molecule: "CC(C)(O)Cn1cc(Nc2ncc(Cl)c(NC3CC4CN(C(=O)CC#N)CC4C3)n2)cn1 (centres unmarked) [Ex. 2]"
  group-label: "YES"

Please check: CLint scaled at 5 μM for CCNC(=O)N1CC2CC(Nc3nc(Nc4cnn(C)c4)ncc3Cl)CC2C1 (centres unmarked) [Ex. 18] , strictly under 60 mL/min/kg or not? NO

Please check: CLint scaled at 5 μM for CC(=O)N1CC2CC(Nc3nc(Nc4cnn(CC(C)(C)O)c4)ncc3Cl)CC2C1 (centres unmarked) [Ex. 1] , strictly under 60 mL/min/kg or not? YES

Please check: CLint scaled at 5 μM for CC(C)(O)Cn1cc(Nc2ncc(Cl)c(NC3CCC4(CC3)CCN(S(C)(=O)=O)CC4)n2)cn1 [Ex. 37] , strictly under 60 mL/min/kg or not? YES

Please check: CLint scaled at 5 μM for CC(=O)N1CC2CC(Nc3nc(Nc4cnn(C5CCNCC5)c4)ncc3Cl)CC2C1 (centres unmarked) [Ex. 6] , strictly under 60 mL/min/kg or not? YES

Please check: CLint scaled at 5 μM for Cn1cc(Nc2ncc(Cl)c(NC3CC4CN(S(=O)(=O)NC5CC5)CC4C3)n2)cn1 (centres unmarked) [Ex. 34] , strictly under 60 mL/min/kg or not? NO

Please check: CLint scaled at 5 μM for Cn1cc(Nc2ncc(Cl)c(NC3CC4CN(C(=O)N5CCOCC5)CC4C3)n2)cn1 (centres unmarked) [Ex. 29] , strictly under 60 mL/min/kg or not? NO

Please check: CLint scaled at 5 μM for Cn1cc(Nc2ncc(Cl)c(NC3CCC4(CC3)CCN(CC(C)(C)O)CC4)n2)cn1 [Ex. 21] , strictly under 60 mL/min/kg or not? YES

Please check: CLint scaled at 5 μM for CC(C)(O)Cn1cc(Nc2ncc(Cl)c(NC3CC4CN(S(C)(=O)=O)CC4C3)n2)cn1 (centres unmarked) [Ex. 39] , strictly under 60 mL/min/kg or not? NO

====

- test-protocol: Compound stability in human liver microsomes
- Assay type: in vitro ADME
- run-conditions: pH 7.4; human liver microsomes 0.5 mg protein/mL, compound 5 μM, NADPH 1.0 mM, 37° C.; read-out: Human T1/2
Heads up, the class ranges for half-life at 5 μM are low range = under 0.9 h, mid range = from 0.9 h up to 2 h, high range = 2 h and over

Past entries and their recorded results:
- compound: "Cn1cc(Nc2ncc(Cl)c(NC3CC4CN(C(=O)N5CCOCC5)CC4C3)n2)cn1 (centres unmarked) [Ex. 29]"
  group-label: "low range"
- compound: "Cn1cc(Nc2ncc(Cl)c(NC3CCC4(CC3)CCN(C(=O)C3CC3)CC4)n2)cn1 [Ex. 22]"
  group-label: "mid range"
- compound: "N#CCC(=O)N1CC2CC(Nc3nc(Nc4cnn(C5CCCNC5)c4)ncc3Cl)CC2C1 (centres unmarked) [Ex. 3]"
  group-label: "high range"

Could you tell me which band Cn1cc(Nc2ncc(Cl)c(NC3CCC4(CC3)CCN(CC(C)(C)O)CC4)n2)cn1 [Ex. 21] belongs to? high range

Could you tell me which band Cn1cc(Nc2ncc(Cl)c(NC3CC4CN(C(=O)Nc5ccccc5)CC4C3)n2)cn1 (centres unmarked) [Ex. 28] belongs to? low range

Could you tell me which band CC(=O)N1CC2CC(Nc3nc(Nc4cnn(-c5ccccn5)c4)ncc3Cl)CC2C1 (centres unmarked) [Ex. 8] belongs to? low range

Could you tell me which band Cn1cc(Nc2ncc(Cl)c(NC3CC4CN(S(=O)(=O)C5CC5)CC4C3)n2)cn1 (centres unmarked) [Ex. 13] belongs to? low range

Could you tell me which band CC(=O)N1CC2CC(CC#N)(Nc3nc(Nc4cnn(C)c4)ncc3Cl)CC2C1 (centres unmarked) [Ex. 48] belongs to? high range

Could you tell me which band CC(O)Cn1cc(Nc2nccc(NC3CC4CN(C(=O)NC5CC5)CC4C3)n2)cn1 (centres unmarked) [Ex. 42] belongs to? high range

Could you tell me which band CC(C)(O)Cn1cc(Nc2ncc(Cl)c(NC3CC4CN(C(=O)CC#N)CC4C3)n2)cn1 (centres unmarked) [Ex. 2] belongs to? mid range

Could you tell me which band Cn1cc(Nc2ncc(Cl)c(NC3CC4CN(C(=O)C5CC5)CC4C3)n2)cn1 (centres unmarked) [Ex. 14] belongs to? low range

Could you tell me which band CC(=O)N1CC2CC(Nc3nc(Nc4cnn(CC(C)(C)O)c4)ncc3Cl)CC2C1 (centres unmarked) [Ex. 1] belongs to? high range

Could you tell me which band CCNC(=O)N1CC2CC(Nc3nc(Nc4cnn(C)c4)ncc3Cl)CC2C1 (centres unmarked) [Ex. 18] belongs to? high range

Could you tell me which band Cn1cc(Nc2ncc(Cl)c(NC3CC4CN(C(=O)NC5CC5)CC4C3)n2)cn1 (centres unmarked) [Ex. 19] belongs to? high range

Could you tell me which band Cn1cc(Nc2ncc(Cl)c(NC3CC4CN(S(=O)(=O)CC5CC5)CC4C3)n2)cn1 (centres unmarked) [Ex. 17] belongs to? low range

Could you tell me which band Cn1cc(Nc2ncc(Cl)c(NC3CCC4(CC3)CCN(S(=O)(=O)C3CC3)CC4)n2)cn1 belongs to? mid range

Could you tell me which band CC(=O)N1CC2CC(Nc3nc(Nc4cnn(C5CCCNC5)c4)ncc3Cl)CC2C1 (centres unmarked) [Ex. 4] belongs to? high range

Could you tell me which band CC(O)Cn1cc(Nc2ncc(Cl)c(NC3CC4CN(C(=O)NC5CC5)CC4C3)n2)cn1 (centres unmarked) [Ex. 41] belongs to? mid range

Could you tell me which band CC(C)(O)Cn1cc(Nc2ncc(Cl)c(NC3CC4CN(C(=O)NC5CC5)CC4C3)n2)cn1 (centres unmarked) [Ex. 36] belongs to? mid range

====

- test-protocol: Compound stability in rat liver microsomes
- Format: in vitro ADME
- run-conditions: pH 7.4; rat liver microsomes; in vivo CLint extrapolated
log10(CLint scaled at 5 μM) values, listed per item
Note the log scale: values are log10 of CLint scaled at 5 μM expressed in mL/min/kg.

- molecule: "CC(O)Cn1cc(Nc2ncc(Cl)c(NC3CC4CN(C(=O)NC5CC5)CC4C3)n2)cn1 (centres unmarked) [Ex. 41]"
  result-value: 1.75
- molecule: "CC(=O)N1CC2CC(Nc3nc(Nc4cnn(-c5ccccn5)c4)ncc3Cl)CC2C1 (centres unmarked) [Ex. 8]"
  result-value: 2.18

May I ask what log10(CLint scaled at 5 μM) has been recorded for Cn1cc(Nc2ncc(Cl)c(NC3CC4CN(C(=O)C5CC5)CC4C3)n2)cn1 (centres unmarked) [Ex. 14] ? 2.87

May I ask what log10(CLint scaled at 5 μM) has been recorded for Cn1cc(Nc2ncc(Cl)c(NC3CC4CN(S(=O)(=O)CC5CC5)CC4C3)n2)cn1 (centres unmarked) [Ex. 17] ? 2.54

May I ask what log10(CLint scaled at 5 μM) has been recorded for Cn1cc(Nc2ncc(Cl)c(NC3CC4CN(C(=O)NC5CC5)CC4C3)n2)cn1 (centres unmarked) [Ex. 19] ? 1.41

May I ask what log10(CLint scaled at 5 μM) has been recorded for CC(C)(O)Cn1cc(Nc2ncc(Cl)c(NC3CC4CN(C(=O)NC5CC5)CC4C3)n2)cn1 (centres unmarked) [Ex. 36] ? 1.91

May I ask what log10(CLint scaled at 5 μM) has been recorded for CC(=O)N1CCC2(CCC(Nc3nc(Nc4cnn(C5CCNCC5)c4)ncc3Cl)CC2)CC1 [Ex. 33] ? 0.89

May I ask what log10(CLint scaled at 5 μM) has been recorded for N#CCC(=O)N1CC2CC(Nc3nc(Nc4cnn(C5CCCNC5)c4)ncc3Cl)CC2C1 (centres unmarked) [Ex. 3] ? 2.81
